Cited source: ChEMBL document CHEMBL2346657

# System: Aspergillus terreus
# Assay Procedure: Antimicrobial activity against Aspergillus terreus MTCC 1782 at 500 ug/ml after 72 hrs by cup plate method
# Assay type: functional
# Condition Info: MTCC 1782, 72 h, read-out: IZ
Measured Attribute: zone of inhibition at 500 µg/mL (mm)
Answers are plain numbers, in mm.

Some entries whose results are on file:
N#CC1=C(N)OC(c2ccc(Cl)cc2)=CC1c1c(-c2ccccc2)[nH]c2ccccc12 (stereo not given); 12
Cc1ccc(C2=CC(c3c(-c4ccccc4)[nH]c4ccc(Cl)cc34)c3c(N)nc(=S)[nH]c3O2)cc1 (stereo not given); 9
Cc1ccc(C2=CC(c3c(-c4ccccc4)[nH]c4ccccc34)c3c(N)n[nH]c3O2)cc1 (stereo not given); 4
Nc1n[nH]c2c1C(c1c(-c3ccccc3)[nH]c3ccccc13)C=C(c1ccc(Cl)cc1)O2 (stereo not given); 8

Attention now turns to another entry.
Find zone of inhibition at 500 µg/mL (Aspergillus terreus) for the entry Cc1ccc2[nH]c(-c3ccccc3)c(C3C=C(c4ccccc4)Oc4[nH]c(=O)nc(N)c43)c2c1 (stereo not given)
8
